Data provenance: patent US5863950A

- Target: HIV-1 protease (Human immunodeficiency virus type 1 group M subtype B)
- Construct: purified HIV-1 protease
- Procedure summary: biochemical
- Assay type: biochemical
- Condition info: 0.5M NaCl, 50 mM MES pH 5.6, 2% DMSO, 37° C., 200 μM substrate
Experimental readout: IC50 (nM)

Worked cases, IC50 given:
CCC1(N(CCO)C(=O)c2ccccc2CCC(O)Cc2ccccc2C(=O)N(CCC(O)CO)C(C)(C)c2ccccc2)CCCC1 (centres unmarked) :: 110
CCC1(N(CCO)C(=O)c2ccccc2CCC(O)Cc2ccc(C)cc2C(=O)N(CC2COC(C)(C)OC2)C(C)(C)c2ccccc2)CCCC1 (centres unmarked) :: 133
CCC1(N(CCO)C(=O)c2ccccc2CCC(O)Cc2ccc(C)cc2C(=O)N(CCO)C(C)(C)c2ccc(OCCN3CCOCC3)cc2)CCCC1 (centres unmarked) :: 108
CCc1ccc(CC(O)CCc2ccccc2C(=O)N(CCOCc2ccccc2)C(C)(C)c2ccccc2)c(C(=O)N(CCO)C(C)(C)c2ccccc2)c1 (centres unmarked) :: 230
CCCC(CC)(CC)N(CCO)C(=O)c1cc(C)ccc1CC(O)CCc1ccccc1C(=O)N(CCO)C1(CC)CCCC1 (centres unmarked) :: 59

[I] CCC1(N(CCO)C(=O)c2ccccc2CCC(O)Cc2ccccc2C(=O)N(CCO)C2(c3ccccc3)CCCC2)CCCC1 (centres unmarked)
[II] Cc1ccc(CCC(O)Cc2ccccc2C(=O)N(CCO)C(C)(C)c2ccccc2)c(C(=O)N(CCO)C(C)(C)C)c1 (centres unmarked)
[III] CC(C)(C)NC(=O)[C@@H]1C[C@@H]2CCCC[C@@H]2CN1CC(O)CCc1ccccc1C(=O)N(CCO)C(C)(C)C (single isomer, unassigned) [Example 30]
(Q) Rank descending by IC50. Return value: ordered labels per request.
(A) III, II, I

###

- System: HIV-1 (MT-2 cells)
- Procedure summary: Anti-HIV MTT assay, inhibition of HIV-induced cell killing, MT-2 cells
- Assay type: cell-based, HIV-1 isolates IIIB and/or RF
- Condition info: Human immunodeficiency virus 1, MT2, 144 h; MT-2 cells (second position), 6 days, 37° C., MTT; read-out: Viral MT-2
Attribute: IC50
Write it as a number; the unit µg/mL goes unstated.

Cc1ccc(CCC(O)Cc2ccccc2C(=O)N(CCO)C(C)(C)c2ccccc2)c(C(=O)N(CCO)C(C)(C)C)c1 (stereo not drawn) :: 4.98

Just so you know, measured IC50 for CCC1(N(CCO)C(=O)c2ccccc2CCC(O)Cc2ccc(C)cc2C(=O)N(CCO)C2(c3ccccc3)CCCC2)CCCC1 (stereo not drawn) came out at 1.47
